Test system: SOX2
Assay: Screen of a library of FDA-approved drugs for SOX2 antibody staining in A375 cells treated with PLX4720 and AZD6244
Details: Z-test against negative controls (DMSO); single dose 5 uM
Counter-ions that a name gives are not always drawn.
Reported values of z for individual entries
property name: z

INSERT INTO assay_data (compound, recorded_measurement) VALUES
  ('CCOC(=O)COc1ccc2c(=O)cc(-c3ccccc3)oc2c1 [EFLOXATE]', 5.713),
  ('CCC(=O)O[C@]1(C(=O)CCl)[C@@H](C)C[C@H]2[C@@H]3C[C@H](F)C4=CC(=O)C=C[C@]4(C)[C@@]3(F)[C@@H](O)C[C@@]21C [Halobetasol Propionate]', 4.335),
  ('CC1(C)O[C@@H]2C[C@H]3[C@@H]4C[C@H](F)C5=CC(=O)C=C[C@]5(C)[C@@]4(F)[C@@H](O)C[C@]3(C)[C@]2(C(=O)CO)O1 [FLUOCINOLONE ACETONIDE]', 3.463),
  ('C1CCC(C(CC2CCCCN2)C2CCCCC2)CC1 (stereo not shown) [PERHEXILINE MALEATE]', 4.713),
  ('Nc1ncn([C@@H]2O[C@H](CO)[C@@H](O)[C@H]2O)c(=O)n1', 8.534),
  ('Nc1cc(F)ccc1NC(=O)c1ccc(CNC(=O)/C=C/c2cccnc2)cc1 [Chidamide]', 7.547),
  ('CCOc1cc2ncc(C#N)c(Nc3ccc(F)c(Cl)c3)c2cc1NC(=O)/C=C/CN(C)C [Pelitinib (EKB-569), Pelitinib]', 5.755);
